Biological target: hERG potassium ion channel (Homo sapiens (Human), UniProt Q12809)
Sequence (Q12809 whole entry): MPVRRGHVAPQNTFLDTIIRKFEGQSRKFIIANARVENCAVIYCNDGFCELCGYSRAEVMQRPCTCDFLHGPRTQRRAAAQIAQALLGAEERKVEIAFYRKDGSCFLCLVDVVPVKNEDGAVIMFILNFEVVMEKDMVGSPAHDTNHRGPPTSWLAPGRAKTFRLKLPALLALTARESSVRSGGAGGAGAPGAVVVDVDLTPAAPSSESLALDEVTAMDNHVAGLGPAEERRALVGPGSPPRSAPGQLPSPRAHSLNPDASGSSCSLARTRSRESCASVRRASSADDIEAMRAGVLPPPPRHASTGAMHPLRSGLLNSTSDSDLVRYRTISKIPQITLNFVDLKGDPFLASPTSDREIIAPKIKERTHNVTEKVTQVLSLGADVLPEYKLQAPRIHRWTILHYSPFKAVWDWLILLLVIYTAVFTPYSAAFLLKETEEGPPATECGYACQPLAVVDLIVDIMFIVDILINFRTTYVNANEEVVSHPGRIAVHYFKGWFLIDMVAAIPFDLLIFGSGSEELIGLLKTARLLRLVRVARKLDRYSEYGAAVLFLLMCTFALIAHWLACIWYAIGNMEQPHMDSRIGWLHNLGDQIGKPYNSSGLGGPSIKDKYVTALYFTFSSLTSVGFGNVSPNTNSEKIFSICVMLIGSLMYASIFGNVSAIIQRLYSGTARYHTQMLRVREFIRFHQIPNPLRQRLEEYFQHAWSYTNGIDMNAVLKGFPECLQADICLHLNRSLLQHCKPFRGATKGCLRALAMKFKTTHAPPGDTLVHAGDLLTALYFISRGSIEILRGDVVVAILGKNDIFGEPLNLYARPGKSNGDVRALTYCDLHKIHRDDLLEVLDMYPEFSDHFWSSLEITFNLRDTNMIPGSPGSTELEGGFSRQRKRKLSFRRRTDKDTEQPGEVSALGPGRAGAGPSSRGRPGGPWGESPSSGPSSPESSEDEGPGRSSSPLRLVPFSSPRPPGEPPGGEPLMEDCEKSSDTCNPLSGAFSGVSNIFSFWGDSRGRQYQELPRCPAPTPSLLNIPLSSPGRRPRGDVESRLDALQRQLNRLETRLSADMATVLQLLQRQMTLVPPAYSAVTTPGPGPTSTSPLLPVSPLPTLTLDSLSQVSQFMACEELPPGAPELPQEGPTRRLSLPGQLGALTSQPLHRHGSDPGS
Test: hERG potassium channel effect test (manual patch clamp, HEK293 cells overexpressing hERG)
Assay type: cell-based
Settings: human, HEK293 cells overexpressing hERG potassium ion channels; 30 μm; read-out: Average inhibition rate of hERG current at the highest compound tested concentration
reported.property: inhibition at 30 μM
In your response, the unit should come after the numeric value.

Illustrative cases are given below, each with its answer.
1. CC(C)N(C(=O)c1cc(F)ccc1Oc1cncnc1N1CC2(CCN(C[C@H]3CC[C@@]4(CCC(=O)N4)CC3)CC2)C1)C(C)C :: 33.1%
2. CC1C[C@]2(CC[C@@H](CN3CCC4(CC3)CN(c3ncnnc3Oc3ccc(F)cc3C(=O)N(C(C)C)C(C)C)C4)CC2)NC1=O (stereo partly drawn) :: 13.2%
3. CCN(C(=O)c1cc(F)ccc1Oc1nncnc1N1CC2(CCN(C[C@H]3CC[C@]4(CC3)C[C@H](COC)C(=O)N4)CC2)C1)C(C)C :: 13.2%
4. COC[C@H]1C[C@]2(CC[C@@H](CN3CCC4(CC3)CN(c3ncnnc3Oc3ccc(F)cc3C(=O)N(C(C)C)C(C)C)C4)CC2)NC1=O :: 10.3%
5. COCC1(COC)C[C@]2(CC[C@@H](CN3CCC4(CC3)CN(c3ncnnc3Oc3ccc(F)cc3C(=O)N(C(C)C)C(C)C)C4)CC2)NC1=O :: 13.2%

Ask | Using the record for CCN(C(=O)c1cc(F)ccc1Oc1nncnc1N1CC2(CCN(C[C@H]3CC[C@]4(CC3)CC(COC)(COC)C(=O)N4)CC2)C1)C(C)C , report its inhibition at 30 μM.
Reply | 12.8%
